Target: cloned human dopamine D3 receptors (Homo sapiens)
Construct: expressed in transfected cells
Assay: [N-Methyl-3H]Spiroperidol binding to cloned human dopamine D3 receptors
pKi: −log10 of the molar value.
outcomeMeasure: pKi

[[record]]
givensmiles = "O=C(NCCCCN1CCN(c2nn(C(=O)Nc3ccccc3C(F)(F)F)c3ccsc23)CC1)Nc1ccccc1C(F)(F)F"
testresult = 6.69

[[record]]
givensmiles = "CC(=O)c1cccc(NC(=O)NCCCCN2CCCN(c3noc4ccsc34)CC2)c1"
testresult = 6.76

[[record]]
givensmiles = "Cc1ccc(NC(=O)NCCCCN2CCN(c3noc4ccsc34)CC2)cc1"
testresult = 7.57

[[record]]
givensmiles = "O=C(NCCCCN1CCN(c2noc3ccsc23)CC1)Nc1ccc(Cl)c(Cl)c1"
testresult = 7.30


---

Target: cloned human dopamine D3 receptors (Homo sapiens)
Construct: expressed in transfected cells
Test: [N-Methyl-3H]Spiroperidol binding to cloned human dopamine D3 receptors
Settings: Table III; read-out: d3Ki
outcomeMeasure: Ki (nM)

[[record]]
compound = "O=C(NCCCCN1CCN(c2csc3cc(C(F)(F)F)ccc23)CC1)Nc1cccc2ccccc12 [compound 815996]"
unitspec = "nM"
testresult = 5.85

[[record]]
compound = "Cc1ccc(NC(=O)NCCCCN2CCN(c3csc4cc(C(F)(F)F)ccc34)CC2)cc1 [815997A]"
unitspec = "nM"
testresult = 4.08

[[record]]
compound = "O=C(NCCCCN1CCC(c2noc3ccsc23)CC1)Nc1ccccc1F [compound 815948]"
unitspec = "nM"
testresult = 6.04

[[record]]
compound = "C=C(C)c1cccc(C(C)(C)NC(=O)NCCCCN2CCC(c3noc4ccsc34)CC2)c1 [compound 815953]"
unitspec = "nM"
testresult = 67.9


---

Target: cloned human dopamine D3 receptors (Homo sapiens, UniProt P35462)
Construct: expressed in transfected cells
Sequence (P35462 whole entry): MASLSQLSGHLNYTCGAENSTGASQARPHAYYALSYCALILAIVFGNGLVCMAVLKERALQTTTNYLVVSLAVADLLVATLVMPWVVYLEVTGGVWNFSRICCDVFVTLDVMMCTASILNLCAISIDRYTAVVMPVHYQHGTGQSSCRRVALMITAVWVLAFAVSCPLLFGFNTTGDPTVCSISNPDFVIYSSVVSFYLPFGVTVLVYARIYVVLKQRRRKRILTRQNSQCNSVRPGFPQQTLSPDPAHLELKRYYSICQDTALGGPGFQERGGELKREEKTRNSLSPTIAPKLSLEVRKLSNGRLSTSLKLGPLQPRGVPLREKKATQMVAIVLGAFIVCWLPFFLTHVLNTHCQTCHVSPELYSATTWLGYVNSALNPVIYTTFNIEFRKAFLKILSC
Test: [N-Methyl-3H]Spiroperidol binding to cloned human dopamine D3 receptors
Conditions: Table III; read-out: d3Ki
Method: [N-Methyl-^3H]Spiroperidol Binding to Cloned Human Dopamine D3 Receptors […] The 96-Well Packard Unifilters GF/B are incubated for >1 h at 25° C. in 0.1% polyethylamine (from 3,b). […] The plates are then shaken on an orbital shaker for 1 h and placed in the Packard Topcount and counted for at least 5 minutes for each point. […]
outcomeMeasure: Ki (µM)

[[record]]
compound = "O=C(NCCCCN1CCN(c2c(Cl)sc3cc(F)ccc23)CC1)Nc1ccc(I)cc1 [compound 815168]"
unitspec = "µM"
testresult = 0.0334

[[record]]
compound = "CCCOc1ccc(NC(=O)NCCCCN2CCN(c3csc4cc(C(F)(F)F)ccc34)CC2)cc1 [compound 815995]"
unitspec = "µM"
testresult = 0.0175

[[record]]
compound = "O=C(NCCCCN1CCN(c2csc3cc(C(F)(F)F)ccc23)CC1)Nc1ccc(C(F)(F)F)cc1 [compound 816002]"
unitspec = "µM"
testresult = 0.0125

[[record]]
compound = "COc1cc(Cl)c(NC(=O)NCCCCN2CCC(c3noc4ccsc34)CC2)c(OC)c1 [compound 816882]"
unitspec = "µM"
testresult = 0.0586

[[record]]
compound = "S=C(NCCCCN1CCC(c2noc3ccsc23)CC1)Nc1ccccc1 [compound 815383]"
unitspec = "µM"
testresult = 0.19

[[record]]
compound = "COc1ccc(NC(=O)NCCCCN2CCC(c3noc4ccsc34)CC2)c(OC)c1 [compound 816879]"
unitspec = "µM"
testresult = 0.047

[[record]]
compound = "CCCCc1ccc(NC(=O)NCCCCN2CCN(c3c(Cl)sc4cc(F)ccc34)CC2)cc1 [compound 815170]"
unitspec = "µM"
testresult = 0.0177

[[record]]
compound = "O=C(NCCCCN1CCN(c2c(Cl)sc3cc(F)ccc23)CC1)Nc1ccccc1Cl [compound 815169]"
unitspec = "µM"
testresult = 0.0112


---

Biological target: cloned human dopamine D3 receptors (Homo sapiens, UniProt P35462)
Construct: expressed in transfected cells
Assay: [N-Methyl-3H]Spiroperidol binding to cloned human dopamine D3 receptors
outcomeMeasure: Ki (nM)

[[record]]
compound = "COc1ccc(NC(=O)NCCCCN2CCCN(c3noc4ccsc34)CC2)cc1 [compound 829433]"
outcomemeasure = "Ki"
testresult = 216

[[record]]
compound = "O=C(NCCCCN1CCCN(c2csc3cc(F)ccc23)CC1)Nc1cc(Cl)cc(Cl)c1 [compound 829202]"
outcomemeasure = "Ki"
testresult = 16.6

[[record]]
compound = "O=C(NCCCCN1CCN(c2cn(C(=O)Nc3ccc(F)cc3)c3ccsc23)CC1)Nc1ccc(F)cc1 [compound 825170]"
outcomemeasure = "Ki"
testresult = 136

[[record]]
compound = "O=C(NCCCCN1CCCN(c2noc3ccsc23)CC1)Nc1cccc(F)c1 [compound 829431]"
outcomemeasure = "Ki"
testresult = 153

[[record]]
compound = "O=C(NCCCCN1CCCN(c2csc3cc(F)ccc23)CC1)Nc1ccccc1F [compound 829216]"
outcomemeasure = "Ki"
testresult = 0.178

[[record]]
compound = "O=C(NCCCCN1CCN(c2nn(C(=O)Nc3ccc(F)cc3F)c3ccsc23)CC1)Nc1ccc(F)cc1F [compound 825171]"
outcomemeasure = "Ki"
testresult = 496

[[record]]
compound = "O=C(NCCCCN1CCN(c2noc3ccsc23)CC1)Nc1cc(Cl)cc(Cl)c1 [compound 829378]"
outcomemeasure = "Ki"
testresult = 184

[[record]]
compound = "O=C(NCCCCN1CCCN(c2csc3cc(F)ccc23)CC1)Nc1ccc(Cl)c(Cl)c1 [compound 829191]"
outcomemeasure = "Ki"
testresult = 43

[[record]]
compound = "CC(C)c1ccc(NC(=O)NC[C@@H]2C[C@H]2CN2CCN(c3csc4cc(C(F)(F)F)ccc34)CC2)cc1 [compound 832919]"
outcomemeasure = "Ki"
testresult = 45.2

[[record]]
compound = "O=C(NCCCCN1CCCN(c2noc3ccsc23)CC1)Nc1ccc(Br)cc1 [compound 829434]"
outcomemeasure = "Ki"
testresult = 197

[[record]]
compound = "O=C(NCCCCN1CCN(c2noc3ccsc23)CC1)Nc1cccc(Br)c1 [compound 829373]"
outcomemeasure = "Ki"
testresult = 14.9

[[record]]
compound = "CCOc1ccc(NC(=O)N(CCCCN2CCC(c3noc4c(C)csc34)CC2)C(=O)Nc2ccc(OCC)cc2)cc1 [compound 829874]"
outcomemeasure = "Ki"
testresult = 360

[[record]]
compound = "CC(C)c1ccc(NC(=O)NCCCCN2CCCN(c3noc4ccsc34)CC2)cc1 [compound 829422]"
outcomemeasure = "Ki"
testresult = 466

[[record]]
compound = "O=C(NCCCCN1CCCN(c2csc3cc(F)ccc23)CC1)Nc1cccc(F)c1 [compound 829217]"
outcomemeasure = "Ki"
testresult = 3.51

[[record]]
compound = "O=C(NCCCCN1CCCN(c2noc3ccsc23)CC1)Nc1ccc(Cl)c(Cl)c1 [compound 829429]"
outcomemeasure = "Ki"
testresult = 111

[[record]]
compound = "CCOc1ccc(NC(=O)NCCCCN2CCN(c3noc4ccsc34)CC2)cc1 [compound 829382]"
outcomemeasure = "Ki"
testresult = 42.7

[[record]]
compound = "C[C@H]1CC[C@H](NC(=O)NC[C@@H]2C[C@H]2CN2CCN(c3csc4cc(C(F)(F)F)ccc34)CC2)CC1 [compound 833356]"
outcomemeasure = "Ki"
testresult = 29.1

[[record]]
compound = "Cc1cccc(NC(=O)NCCCCN2CCN(c3noc4ccsc34)CC2)c1 [compound 829369]"
outcomemeasure = "Ki"
testresult = 44.2

[[record]]
compound = "O=C(NCCCCN1CCN(c2noc3ccsc23)CC1)Nc1ccc(Cl)cc1C(F)(F)F [compound 829392]"
outcomemeasure = "Ki"
testresult = 487

[[record]]
compound = "O=C(NCCCCN1C2CCC1CC(c1noc3cc(F)ccc13)C2)Nc1ccccc1F (centres unmarked) [compound 817229]"
outcomemeasure = "Ki"
testresult = 365

[[record]]
compound = "CC(=O)c1cccc(NC(=O)NCCCCN2CCN(c3noc4ccsc34)CC2)c1 [compound 829381]"
outcomemeasure = "Ki"
testresult = 46.5

[[record]]
compound = "CC(C)c1ccc(NC(=O)NCCCCN2CCN(c3noc4ccsc34)CC2)cc1 [compound 829407]"
outcomemeasure = "Ki"
testresult = 452

[[record]]
compound = "O=C(NCCCCN1CCN(c2noc3ccsc23)CC1)Nc1cccc(F)c1 [compound 829394]"
outcomemeasure = "Ki"
testresult = 77.1

[[record]]
compound = "COc1cccc(NC(=O)NCCCCN2CCN(c3noc4ccsc34)CC2)c1 [compound 829398]"
outcomemeasure = "Ki"
testresult = 44.1

[[record]]
compound = "O=C(NCCCCN1CCN(c2noc3ccsc23)CC1)Nc1cc(C(F)(F)F)ccc1F [compound 829385]"
outcomemeasure = "Ki"
testresult = 142

[[record]]
compound = "O=C(NCCCCN1CCCN(c2noc3ccsc23)CC1)Nc1cc(F)ccc1F [compound 829417]"
outcomemeasure = "Ki"
testresult = 338

[[record]]
compound = "O=C(NCCCCN1CCCN(c2noc3ccsc23)CC1)Nc1cc(C(F)(F)F)ccc1F [compound 829425]"
outcomemeasure = "Ki"
testresult = 539

[[record]]
compound = "Cc1csc2c(C3CCN(CCCCNC(=O)Nc4ccccc4F)CC3)noc12 [compound 829879]"
outcomemeasure = "Ki"
testresult = 354

[[record]]
compound = "Cc1cccc(NC(=O)NCCCCN2CCCN(c3csc4cc(F)ccc34)CC2)c1 [compound 829192]"
outcomemeasure = "Ki"
testresult = 4.03

[[record]]
compound = "O=C(NCCCCN1C2CCC1CC(c1noc3cc(F)ccc13)C2)Nc1cccc(C(F)(F)F)c1 (centres unmarked) [compound 817231]"
outcomemeasure = "Ki"
testresult = 433

[[record]]
compound = "O=C(Nc1ccc(Cl)c(Cl)c1)N(Cc1ccccc1)CC1CC1CN1CCCN(c2csc3cc(F)ccc23)CC1 (racemic) [compound 830401]"
outcomemeasure = "Ki"
testresult = 29.7

[[record]]
compound = "O=C(NCCCCN1CCN(c2noc3ccsc23)CC1)Nc1cccc(C(F)(F)F)c1 [compound 829395]"
outcomemeasure = "Ki"
testresult = 148

